- assay.explanation: Unbound plasma lurbinectedin pharmacokinetics with and without itraconazole (phase Ib drug-drug interaction study)
- Format: in vivo, human
- experimental.context: human, intravenous, 3.2 mg/m^2; unbound plasma lurbinectedin; Test n = 5, Reference n = 8; read-out: Unbound t1/2, geometric mean (CV%) (converted)
outcome.measure: half-life (h)
Give bare numbers, in h.

Answer with the recorded half-life of COc1ccc2[nH]c3c(c2c1)CCN[C@]31CS[C@@H]2c3c(OC(C)=O)c(C)c4c(c3[C@H](COC1=O)N1[C@@H]2[C@H]2c3c(cc(C)c(OC)c3O)C[C@@H]([C@@H]1O)N2C)OCO4 only.
46.6

----------
- assay.explanation: Total plasma lurbinectedin pharmacokinetics with and without itraconazole (phase Ib drug-drug interaction study)
- Assay type: in vivo, human
- experimental.context: human, intravenous, 3.2 mg/m^2; total plasma lurbinectedin; n = 8 patients per treatment; read-out: CL, geometric mean (CV%) (converted)
outcome.measure: clearance

Answer with the recorded clearance of COc1ccc2[nH]c3c(c2c1)CCN[C@]31CS[C@@H]2c3c(OC(C)=O)c(C)c4c(c3[C@H](COC1=O)N1[C@@H]2[C@H]2c3c(cc(C)c(OC)c3O)C[C@@H]([C@@H]1O)N2C)OCO4 [lurbinectedin] only.
158 mL/min

----------
- assay.explanation: Total plasma lurbinectedin pharmacokinetics with and without itraconazole (phase Ib drug-drug interaction study)
- Type: in vivo, human
- experimental.context: human, intravenous, 3.2 mg/m^2; total plasma lurbinectedin; n = 8 patients per treatment; read-out: t1/2, geometric mean (CV%) (converted)
outcome.measure: half-life (h)
Answers are plain numbers, in h.

Answer with the recorded half-life of COc1ccc2[nH]c3c(c2c1)CCN[C@]31CS[C@@H]2c3c(OC(C)=O)c(C)c4c(c3[C@H](COC1=O)N1[C@@H]2[C@H]2c3c(cc(C)c(OC)c3O)C[C@@H]([C@@H]1O)N2C)OCO4 [lurbinectedin] only.
46.6

----------
- assay.explanation: Unbound plasma lurbinectedin pharmacokinetics with and without itraconazole (phase Ib drug-drug interaction study)
- Format: in vivo, human
- experimental.context: human, intravenous, 3.2 mg/m^2; unbound plasma lurbinectedin; Test n = 5, Reference n = 8; read-out: Unbound Vss, geometric mean (CV%)
outcome.measure: Vd (L)
Numbers only, in L.

Answer with the recorded Vd of COc1ccc2[nH]c3c(c2c1)CCN[C@]31CS[C@@H]2c3c(OC(C)=O)c(C)c4c(c3[C@H](COC1=O)N1[C@@H]2[C@H]2c3c(cc(C)c(OC)c3O)C[C@@H]([C@@H]1O)N2C)OCO4 only.
235000

----------
- assay.explanation: Total plasma lurbinectedin pharmacokinetics with and without itraconazole (phase Ib drug-drug interaction study)
- Type: in vivo, human
- experimental.context: human, intravenous, 3.2 mg/m^2; total plasma lurbinectedin; n = 8 patients per treatment; read-out: Vss, geometric mean (CV%)
outcome.measure: Vd
For clarity, give the value followed by its unit.

Answer with the recorded Vd of COc1ccc2[nH]c3c(c2c1)CCN[C@]31CS[C@@H]2c3c(OC(C)=O)c(C)c4c(c3[C@H](COC1=O)N1[C@@H]2[C@H]2c3c(cc(C)c(OC)c3O)C[C@@H]([C@@H]1O)N2C)OCO4 only.
419 L

Where do these numbers come from? They come from paper PMC11050816.
